Provide the recorded EC50 for the entries that follow.
system: JAK-STAT signalling in HeLa cells; test: JAK-STAT signalling assay (OSM-triggered pSTAT1(2)-luciferase reporter in HeLa cells); format: cell-based; settings: Homo sapiens; HeLa cells, OSM-triggered pSTAT1(2)-luciferase reporter; read-out: STAT signalling EC50

IN: Which EC50 is reported for this compound? "COC(=O)c1ccc(COc2ccc(-c3cccc4nc(NC(=O)C5CC5)nn34)cc2)nc1"
OUT: > 1000 nM

IN: Look up EC50 for this compound: "O=C(Nc1nc2cccc(-c3ccc(CCc4ccccn4)cc3)n2n1)C1CC1"
OUT: 501 to 1000 nM

IN: Dear colleague, I am looking for the recorded EC50 of the following compound: "O=C(Nc1nc2cccc(-c3ccc(S(=O)(=O)NC4CC4)cc3)n2n1)C1CC1"
OUT: > 1000 nM
